Molecular target: N-type calcium channel (Homo sapiens)
Construct: expressed in transfected cells
Assay: Automated electrophysiology assay (QPatch-HT whole-cell patch clamp)
Assay type: cell-based
Conditions: 1 μM; high frequency (15th pulse of train, 5 Hz); read-out: QPatch at High Frequency % Inhibition
measured_property: inhibition at 1 µM (%)

Known results for compounds:
COc1ccc(-c2c3c(nn2-c2ccccc2OC)CN(S(=O)(=O)C(C)C)C3)cn1
60
CC(C)(C)OC(=O)NCC(=O)N1Cc2nn(-c3ccccc3OC(F)(F)F)c(-c3ccc(Cl)cc3)c2C1
28
CCc1ccccc1-n1nc2c(c1-c1ccc(Cl)cc1)CN(C(=O)c1ccncc1)C2
37
CCCC(C)S(=O)(=O)N1Cc2nn(-c3ccc(C)cc3OC)c(-c3ccc(Cl)cc3)c2C1 (stereo not shown)
30
CCCC(C)S(=O)(=O)N1Cc2nn(-c3ccccc3OC)c(-c3ccc(Cl)cc3)c2C1 (stereo not shown)
91
COc1ccccc1-n1nc2c(c1-c1ccc(Cl)cc1)CN(S(=O)(=O)N1CCC(C)CC1)C2
82
CS(=O)(=O)N1Cc2nn(-c3ccccc3OC(F)(F)F)c(-c3ccc(Cl)cc3)c2C1
30
COc1ccccc1-n1nc2c(c1-c1ccc(Cl)cc1)CN(S(C)(=O)=O)C2
49
CCc1ccccc1-n1nc2c(c1-c1ccc(Cl)cc1)CN(C(=O)C(F)(F)F)C2
23
COc1ccccc1-n1nc2c(c1-c1ccc(Cl)cc1)CN(S(=O)(=O)C1CC1)C2
83

[P] CCc1ccccc1-n1nc2c(c1-c1ccc(Cl)cc1)CN(S(C)(=O)=O)C2
[Q] CCc1ccccc1-n1nc2c(c1-c1ccc(Cl)cc1)CN(C(=O)CNC(=O)OC(C)(C)C)C2
stdin: Please indicate which entry, P or Q , has the lower recorded inhibition at 1 µM value. // return label of chosen record
stdout: P
(P: 22%, Q: 68%)

* * *

Target: N-type calcium channel α1B (Cav2.2), β3 and α2δ subunits (Homo sapiens, UniProt Q00975)
Construct: expressed in transfected cells
Sequence (Q00975 whole entry): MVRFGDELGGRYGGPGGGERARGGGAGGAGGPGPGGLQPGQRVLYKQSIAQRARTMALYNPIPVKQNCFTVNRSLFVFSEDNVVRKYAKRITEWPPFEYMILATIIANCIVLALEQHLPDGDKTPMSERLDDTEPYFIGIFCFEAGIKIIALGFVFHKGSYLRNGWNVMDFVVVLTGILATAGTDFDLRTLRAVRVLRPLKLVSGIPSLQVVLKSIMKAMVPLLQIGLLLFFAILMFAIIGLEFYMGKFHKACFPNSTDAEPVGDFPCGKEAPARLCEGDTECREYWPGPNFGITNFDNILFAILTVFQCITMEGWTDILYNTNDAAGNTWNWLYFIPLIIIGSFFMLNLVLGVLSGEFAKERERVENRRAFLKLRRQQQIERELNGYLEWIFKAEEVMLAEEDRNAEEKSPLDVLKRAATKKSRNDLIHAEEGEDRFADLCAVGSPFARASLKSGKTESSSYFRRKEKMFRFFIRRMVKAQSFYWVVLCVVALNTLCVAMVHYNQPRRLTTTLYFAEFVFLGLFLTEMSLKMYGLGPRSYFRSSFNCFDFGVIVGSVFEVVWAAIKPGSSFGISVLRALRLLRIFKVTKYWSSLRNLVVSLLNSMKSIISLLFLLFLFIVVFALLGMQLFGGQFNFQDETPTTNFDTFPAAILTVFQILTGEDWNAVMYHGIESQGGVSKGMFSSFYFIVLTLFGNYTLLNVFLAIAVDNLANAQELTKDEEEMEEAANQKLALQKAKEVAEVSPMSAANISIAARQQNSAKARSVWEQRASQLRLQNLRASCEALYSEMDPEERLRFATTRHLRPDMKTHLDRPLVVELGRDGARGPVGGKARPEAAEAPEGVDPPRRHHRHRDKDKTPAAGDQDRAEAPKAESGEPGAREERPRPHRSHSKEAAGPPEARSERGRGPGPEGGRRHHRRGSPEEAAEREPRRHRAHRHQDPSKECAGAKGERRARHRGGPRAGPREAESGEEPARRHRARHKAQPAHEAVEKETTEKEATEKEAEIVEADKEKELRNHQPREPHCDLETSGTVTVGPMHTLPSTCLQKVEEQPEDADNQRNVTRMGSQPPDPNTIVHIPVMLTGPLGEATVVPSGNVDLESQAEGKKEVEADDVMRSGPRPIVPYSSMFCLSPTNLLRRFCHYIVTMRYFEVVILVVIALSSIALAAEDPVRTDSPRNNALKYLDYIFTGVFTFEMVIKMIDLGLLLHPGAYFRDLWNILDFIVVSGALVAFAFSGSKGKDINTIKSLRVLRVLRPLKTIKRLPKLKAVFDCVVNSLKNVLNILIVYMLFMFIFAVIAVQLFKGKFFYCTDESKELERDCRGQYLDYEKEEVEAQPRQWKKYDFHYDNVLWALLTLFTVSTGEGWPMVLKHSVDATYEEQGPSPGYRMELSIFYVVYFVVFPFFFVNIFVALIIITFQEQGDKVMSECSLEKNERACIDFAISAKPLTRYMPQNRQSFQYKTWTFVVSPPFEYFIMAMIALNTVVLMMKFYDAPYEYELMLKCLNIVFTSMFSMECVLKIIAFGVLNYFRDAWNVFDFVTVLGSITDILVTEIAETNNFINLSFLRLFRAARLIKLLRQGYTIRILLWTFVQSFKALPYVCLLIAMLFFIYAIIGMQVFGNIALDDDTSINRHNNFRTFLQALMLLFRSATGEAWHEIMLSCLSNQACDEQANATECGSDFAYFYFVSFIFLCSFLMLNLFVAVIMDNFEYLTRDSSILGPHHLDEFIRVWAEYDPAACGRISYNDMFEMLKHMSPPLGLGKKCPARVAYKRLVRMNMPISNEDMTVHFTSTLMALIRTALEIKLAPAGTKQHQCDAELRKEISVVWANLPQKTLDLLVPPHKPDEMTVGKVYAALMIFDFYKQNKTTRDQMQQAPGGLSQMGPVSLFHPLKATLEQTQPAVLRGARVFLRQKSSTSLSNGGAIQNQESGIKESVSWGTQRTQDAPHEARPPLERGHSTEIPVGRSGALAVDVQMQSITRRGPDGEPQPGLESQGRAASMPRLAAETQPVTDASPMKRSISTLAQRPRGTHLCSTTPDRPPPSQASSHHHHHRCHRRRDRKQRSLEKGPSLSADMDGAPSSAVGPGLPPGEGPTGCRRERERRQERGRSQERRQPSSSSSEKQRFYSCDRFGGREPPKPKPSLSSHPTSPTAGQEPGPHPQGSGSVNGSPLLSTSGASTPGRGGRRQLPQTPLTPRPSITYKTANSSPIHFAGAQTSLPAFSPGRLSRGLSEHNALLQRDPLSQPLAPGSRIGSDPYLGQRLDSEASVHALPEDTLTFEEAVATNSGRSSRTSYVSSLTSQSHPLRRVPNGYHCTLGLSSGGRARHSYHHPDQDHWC
Sequence (P54284 whole entry partner): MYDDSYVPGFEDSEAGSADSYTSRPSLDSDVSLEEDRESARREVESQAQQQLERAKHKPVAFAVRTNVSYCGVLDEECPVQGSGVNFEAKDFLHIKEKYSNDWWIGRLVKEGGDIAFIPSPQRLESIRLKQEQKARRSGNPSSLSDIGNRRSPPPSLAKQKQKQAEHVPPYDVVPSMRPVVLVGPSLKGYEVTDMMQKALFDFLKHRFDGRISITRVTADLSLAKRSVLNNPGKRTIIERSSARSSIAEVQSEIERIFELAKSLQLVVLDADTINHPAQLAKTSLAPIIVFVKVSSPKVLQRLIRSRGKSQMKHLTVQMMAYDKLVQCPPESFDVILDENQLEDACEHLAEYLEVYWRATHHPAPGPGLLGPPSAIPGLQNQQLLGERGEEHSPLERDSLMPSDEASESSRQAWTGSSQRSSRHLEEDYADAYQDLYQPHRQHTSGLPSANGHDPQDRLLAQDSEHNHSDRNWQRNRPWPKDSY
Sequence (P54289 25-956 partner limits assumed): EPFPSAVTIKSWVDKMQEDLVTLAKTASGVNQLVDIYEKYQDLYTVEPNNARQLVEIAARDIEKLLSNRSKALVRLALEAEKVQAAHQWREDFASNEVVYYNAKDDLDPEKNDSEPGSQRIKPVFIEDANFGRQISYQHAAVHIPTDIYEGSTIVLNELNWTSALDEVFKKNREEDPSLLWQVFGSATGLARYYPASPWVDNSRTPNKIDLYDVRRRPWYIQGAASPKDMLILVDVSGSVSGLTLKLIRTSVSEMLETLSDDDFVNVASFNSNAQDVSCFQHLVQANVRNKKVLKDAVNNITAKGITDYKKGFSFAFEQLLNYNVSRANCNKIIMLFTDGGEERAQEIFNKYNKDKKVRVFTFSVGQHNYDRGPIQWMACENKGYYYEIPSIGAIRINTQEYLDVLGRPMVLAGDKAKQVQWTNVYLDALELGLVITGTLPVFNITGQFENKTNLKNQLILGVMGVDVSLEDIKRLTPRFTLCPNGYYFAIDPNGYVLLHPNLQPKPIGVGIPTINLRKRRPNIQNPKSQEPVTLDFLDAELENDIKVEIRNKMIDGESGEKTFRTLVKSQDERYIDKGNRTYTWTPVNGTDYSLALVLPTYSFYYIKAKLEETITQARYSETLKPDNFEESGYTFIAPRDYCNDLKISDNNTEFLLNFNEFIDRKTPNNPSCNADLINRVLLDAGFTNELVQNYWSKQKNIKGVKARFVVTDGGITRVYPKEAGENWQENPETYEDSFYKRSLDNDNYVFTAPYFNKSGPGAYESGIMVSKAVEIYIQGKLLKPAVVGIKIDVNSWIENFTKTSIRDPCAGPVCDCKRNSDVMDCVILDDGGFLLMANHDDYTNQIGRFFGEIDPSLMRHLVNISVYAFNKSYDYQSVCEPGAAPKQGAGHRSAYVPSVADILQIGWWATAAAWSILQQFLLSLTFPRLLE
Sequence (P54289 957-1103 partner limits assumed): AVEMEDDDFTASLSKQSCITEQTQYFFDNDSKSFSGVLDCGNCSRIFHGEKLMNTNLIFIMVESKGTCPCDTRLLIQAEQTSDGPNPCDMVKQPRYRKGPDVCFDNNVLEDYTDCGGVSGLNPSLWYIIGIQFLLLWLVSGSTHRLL
Test: Functional assay, antagonism of N-type calcium channel (FDSS calcium mobilization response to KCl depolarization)
Assay type: cell-based
Conditions: 0.33 μM compound; FDSS, 50 mM KCl
measured_property: inhibition at 0.33 µM (%)

Reference set, count: 3
CCCC(C)S(=O)(=O)N1Cc2nn(-c3ccc(C)cc3OC)c(-c3ccc(Cl)cc3)c2C1 (centres unmarked)
90
COc1ccccc1-n1nc2c(c1-c1ccc(Cl)cc1)CN(S(=O)(=O)c1c(C)noc1C)C2
89
COc1cc(F)ccc1-n1nc2c(c1-c1ccc(Cl)cc1)CN(S(=O)(=O)C1CCCCC1)C2
82

[A] COc1cc(C)ccc1-n1nc2c(c1-c1ccc(Cl)cc1)CN(S(C)(=O)=O)C2
[B] COc1ccccc1-n1nc2c(c1-c1ccc(C)nc1)CN(S(=O)(=O)C(C)C)C2
stdin: Decide: A or B , by lowest recorded inhibition at 0.33 µM. Your answer should be the label attached to the chosen record.
stdout: B

* * *

Target: N-type calcium channel α1B (Cav2.2), β3 and α2δ subunits (Homo sapiens)
Test: Functional assay, antagonism of N-type calcium channel (FDSS calcium mobilization response to KCl depolarization)
Settings: HEK stable cell line; 50 mM KCl depolarization; six-point concentration-response
measured_property: IC50 (nM)

Check out these entries, answers already filled in.
COc1ccc(-n2nc3c(c2-c2ccc(Cl)cc2)CN(S(=O)(=O)C2CCCCC2)C3)c(C)c1
130
CN(C)S(=O)(=O)N1Cc2nn(-c3ccccc3OC(C)(C)C)c(-c3ccc(Cl)cc3)c2C1
63
COc1ccccc1-n1nc2c(c1-c1ccc(Cl)cc1)CN(S(=O)(=O)CCOc1ccccc1)C2
100
CCc1ccccc1-n1nc2c(c1-c1ccc(Cl)cc1)CN(C(=O)CNS(C)(=O)=O)C2
520
COc1ccccc1-n1nc2c(c1-c1ccc(Cl)cc1)CN(C(=O)N(C)C)C2
170
CC(C)S(=O)(=O)N1Cc2nn(-c3ccccc3C(F)(F)F)c(-c3ccc(Cl)cc3)c2C1
160

[a] COc1ccc(-n2nc3c(c2-c2ccc(Cl)cc2)CN(S(=O)(=O)N2CCC(C)CC2)C3)c(F)c1
[b] COc1ccccc1-n1nc2c(c1-c1ccc(Cl)cc1)CN(S(=O)(=O)CCN1C(=O)CCC1=O)C2
stdin: Looking only at measured IC50, which entry is lower, a or b ? The response must carry the label of the picked entry.
stdout: b
(b: 48 nM, a: 140 nM)

* * *

Biological target: N-type calcium channel (Homo sapiens)
Construct: expressed in transfected cells
Assay: Automated electrophysiology assay (QPatch-HT whole-cell patch clamp)
Type: cell-based
Conditions: 0.25 μM; low frequency (1st pulse of train); read-out: QPatch at Low Frequency % Inhibition
measured_property: inhibition at 0.25 µM (%)

COc1ccccc1-n1nc2c(c1-c1ccc(Cl)cc1)CN(S(=O)(=O)CC(F)(F)F)C2
42
COc1ccccc1-n1nc2c(c1-c1ccc(Cl)cc1)CN(S(=O)(=O)C1CCCCC1)C2
61
COc1ccccc1-n1nc2c(c1-c1ccc(Cl)cc1)CN(S(=O)(=O)C1CCCC1)C2
57

[I] COc1ccccc1-n1nc2c(c1-c1ccc(Cl)cc1)CN(S(=O)(=O)C1CC1)C2
[II] CC(C)S(=O)(=O)N1Cc2nn(-c3ccccc3OC(F)(F)F)c(-c3ccc(Cl)cc3)c2C1
[III] CCc1ccccc1-n1nc2c(c1-c1ccc(Cl)cc1)CN(C(=O)CNC(=O)OC(C)(C)C)C2
[IV] CCc1ccccc1-n1nc2c(c1-c1ccc(Cl)cc1)CN(C(=O)c1ccncc1)C2
stdin: Please give the order of these molecules when sorted by inhibition at 0.25 µM, largest value leading. # answer = labels listed in requested order
stdout: I, II, III, IV
(I: 57%, II: 22%, III: 14%, IV: 0%)

* * *

Biological target: N-type calcium channel (Homo sapiens)
Construct: expressed in transfected cells
Assay: Automated electrophysiology assay (QPatch-HT whole-cell patch clamp)
Format: cell-based
Details: 1 μM; low frequency (1st pulse of train); read-out: QPatch at Low Frequency % Inhibition
measured_property: inhibition at 1 µM (%)

Answered cases to consult:
CS(=O)(=O)N1Cc2nn(-c3ccccc3OC(F)(F)F)c(-c3ccc(Cl)cc3)c2C1
5
CCCC(C)S(=O)(=O)N1Cc2nn(-c3ccc(C)cc3OC)c(-c3ccc(Cl)cc3)c2C1 (stereo not drawn)
-3
CCc1ccccc1-n1nc2c(c1-c1ccc(Cl)cc1)CN(C(=O)c1ccncc1)C2
11

[A] CC(C)(C)OC(=O)NCC(=O)N1Cc2nn(-c3ccccc3OC(F)(F)F)c(-c3ccc(Cl)cc3)c2C1
[B] CCc1ccccc1-n1nc2c(c1-c1ccc(Cl)cc1)CN(S(C)(=O)=O)C2
[C] CCc1ccccc1-n1nc2c(c1-c1ccc(Cl)cc1)CN(C(=O)CNC(=O)OC(C)(C)C)C2
stdin: Arrange the 3 compounds from largest to smallest inhibition at 1 µM. Form field (ranking): labels in requested order.
stdout: C, A, B

* * *

Target: N-type calcium channel (Homo sapiens, UniProt Q00975)
Construct: expressed in transfected cells
Assay: Automated electrophysiology assay (QPatch-HT whole-cell patch clamp)
Type: cell-based
Details: 0.25 μM; high frequency (15th pulse of train, 5 Hz); read-out: QPatch at High Frequency % Inhibition
measured_property: inhibition at 0.25 µM (%)

CC(C)S(=O)(=O)N1Cc2nn(-c3ccccc3OC(F)(F)F)c(-c3ccc(Cl)cc3)c2C1
42

[1] CCc1ccccc1-n1nc2c(c1-c1ccc(Cl)cc1)CN(C(=O)c1ccncc1)C2
[2] CCc1ccccc1-n1nc2c(c1-c1ccc(Cl)cc1)CN(C(=O)CNC(=O)OC(C)(C)C)C2
stdin: Two entries are listed, 1 and 2 . Which one carries the higher inhibition at 0.25 µM? Please respond with the label that marks your chosen entry.
stdout: 2

* * *

Molecular target: N-type calcium channel α1B (Cav2.2), β3 and α2δ subunits (Homo sapiens, UniProt Q00975)
Assay: Functional assay, antagonism of N-type calcium channel (FDSS calcium mobilization response to KCl depolarization)
Conditions: HEK stable cell line; 50 mM KCl depolarization; six-point concentration-response
measured_property: IC50 (nM)

Solved entries:
CC(C)(C)OC(=O)NCC(=O)N1Cc2nn(-c3ccccc3OC(F)(F)F)c(-c3ccc(Cl)cc3)c2C1 [Cpd 22]
240
CC1CCN(S(=O)(=O)N2Cc3nn(-c4cccc5c4OCO5)c(-c4ccc(Cl)cc4)c3C2)CC1 [Cpd 83]
20
COc1ccccc1-n1nc2c(c1-c1ccc(Cl)cc1)CN(C(=O)OC(C)(C)C)C2 [Cpd 28]
73

[I] CCc1ccccc1-n1nc2c(c1-c1ccc(Cl)cc1)CN(C(=O)COC)C2 [Cpd 10]
[II] COc1cc(F)ccc1-n1nc2c(c1-c1ccc(Cl)cc1)CN(S(C)(=O)=O)C2 [Cpd 70]
[III] COc1ccccc1-n1nc2c(c1-c1ccc(Cl)cc1)CN(S(=O)(=O)CCNS(C)(=O)=O)C2 [Cpd 44]
[IV] COc1ccccc1-n1nc2c(c1-c1ccc(Cl)cc1)CN(S(=O)(=O)C1CC1)C2 [Cpd 32]
[V] COc1ccc(-n2nc3c(c2-c2ccc(Cl)cc2)CN(S(=O)(=O)N(C)C)C3)c(C)c1 [Cpd 69]
stdin: With regard to IC50, arrange the entries in ascending order, please. Response field: labels, in requested order.
stdout: III, IV, II, V, I
